- tested target: HIV integrase (Human immunodeficiency virus type 1 group M subtype B)
- protocol notes: HIV-integrase inhibition activity: inhibition of [3H]BMS-641493 binding to enzyme-SPA bead complexes
- conditions: competition with [3H]BMS-641493, enzyme-SPA bead complexes; read-out: Activity (Ki toward integrase)
pKi: −log10 of the molar value. Structures can show the parent of a compound that is named as a salt.
Decision: pKi compared against 7; not below it gives 1, below it gives 0.

compound: CN(C)C(=O)C(=O)NC12CCC(CC1)Cn1c2nc(-c2ncc(Cc3ccc(F)cc3)s2)c(O)c1=O [Example 6]
tested target: HIV integrase (Human immunodeficiency virus type 1 group M subtype B)
class assignment: 0

compound: CN(C)C(=O)C(=O)NC12CCC(CC1)Cn1c2nc(-c2nnc(Cc3ccc(F)cc3)s2)c(O)c1=O [Example 16]
tested target: HIV integrase (Human immunodeficiency virus type 1 group M subtype B)
class assignment: 0

compound: CN(C)C(=O)C(=O)N(C)C12CCC(CC1)Cn1c2nc(-c2ncc(Cc3ccc(F)cc3)[nH]2)c(O)c1=O [Example 13, trifluoroacetate salt]
tested target: HIV integrase (Human immunodeficiency virus type 1 group M subtype B)
class assignment: 1

compound: CC(=O)N(C)C1(C(=O)NC23CCC(CC2)Cn2c3nc(-c3ncc(Cc4ccc(F)c(C)c4)[nH]3)c(O)c2=O)CC1 [Example 15, trifluoroacetate salt]
tested target: HIV integrase (Human immunodeficiency virus type 1 group M subtype B)
class assignment: 1

compound: CN(C)C(=O)C(=O)NC12CCC(CC1)Cn1c2nc(-c2ncc(Cc3ccc(F)cc3)[nH]2)c(O)c1=O [Example 2]
tested target: HIV integrase (Human immunodeficiency virus type 1 group M subtype B)
class assignment: 1

Pending compound:
Qu. Hi team, for NC12CCC(CC1)Cn1c2nc(-c2ncc(Cc3ccc(F)cc3)s2)c(O)c1=O [Example 5] , is the recorded pKi at or above 7?
Ans. 0

----------
- tested target: HIV integrase (Human immunodeficiency virus type 1 group M subtype B, UniProt P12497)
- protocol notes: HIV-integrase inhibition activity: inhibition of [3H]BMS-641493 binding to enzyme-SPA bead complexes
- conditions: competition with [3H]BMS-641493, enzyme-SPA bead complexes; read-out: Activity (Ki toward integrase)
Structures can show the parent of a compound that is named as a salt.
Reported values of pKi for individual entries
Reminder that pKi is minus the log10 of a molar concentration.

compound: Cc1cc(Cc2cnc(-c3nc4n(c(=O)c3O)CC3CCC4(NC(=O)C(=O)N(C)C)CC3)[nH]2)ccc1F [Example 10, trifluoroacetate salt]
tested target: HIV integrase (Human immunodeficiency virus type 1 group M subtype B, UniProt P12497)
pKi: 8.05
--
compound: CN(C)C(=O)C(=O)NC12CCC(CC1)Cn1c2nc(-c2ncn(Cc3ccc(F)cc3)n2)c(O)c1=O
tested target: HIV integrase (Human immunodeficiency virus type 1 group M subtype B, UniProt P12497)
pKi: 5.97
--
compound: Cc1cc(Cc2c[nH]c(-c3nc4n(c(=O)c3O)CC3CCC4(N(C)C(=O)C(=O)N(C)C)CC3)n2)ccc1F [Example 17, trifluoroacetate salt]
tested target: HIV integrase (Human immunodeficiency virus type 1 group M subtype B, UniProt P12497)
pKi: 8.00
--
compound: CN(C)C(=O)C(=O)NC12CCC(CC1)Cn1c2nc(-c2nnc(Cc3ccc(F)cc3)o2)c(O)c1=O
tested target: HIV integrase (Human immunodeficiency virus type 1 group M subtype B, UniProt P12497)
pKi: 6.65

Query Cc1cc(Cc2cnc(-c3nc4n(c(=O)c3O)CC3CCC4(NC(=O)c4cccnn4)CC3)[nH]2)ccc1F [Example 12, trifluoroacetate salt] yields pKi of 7.89

Query Cc1cc(C(=O)NC23CCC(CC2)Cn2c3nc(-c3ncc(Cc4ccc(F)cc4)[nH]3)c(O)c2=O)no1 yields pKi of 7.68
